# tested_system: Glucocorticoid receptor (Homo sapiens)
# test_method_notes: Inhibition of transcriptional activation in CV-1 cells expressing glucocorticoid receptor
# Assay type: functional, cell-based
measured_endpoint: log10 of IC50 (log10 of the value in nM)
Please interpret these as log10 of IC50 where IC50 is in nM.

Report log10 of IC50 for COC(=O)/C=C/CC1Oc2cccc(OC)c2-c2ccc3c(c21)C(C)=CC(C)(C)N3 (centres undefined) please.
2.34

Report log10 of IC50 for C=CC(C)C1Oc2cccc(OC)c2-c2ccc3c(c21)C(C)=CC(C)(C)N3 (centres undefined) please.
2.04

Report log10 of IC50 for C=CCC1Oc2cccc(OC)c2-c2ccc3c(c21)C(C)=CC(C)(C)N3 (stereo in doubt; 4a) [AL-43] please.
1.52

Report log10 of IC50 for C=C(COC(C)=O)CC1Oc2cccc(OC)c2-c2ccc3c(c21)C(C)=CC(C)(C)N3 (centres undefined) please.
2.49

Report log10 of IC50 for C/C=C/CC1Oc2cccc(OC)c2-c2ccc3c(c21)C(C)=CC(C)(C)N3 (centres undefined) please.
2.18

Report log10 of IC50 for C=C(Br)CC1Oc2cccc(OC)c2-c2ccc3c(c21)C(C)=CC(C)(C)N3 (centres undefined) please.
2.38

Report log10 of IC50 for COc1cccc2c1-c1ccc3c(c1C(CC=C(F)F)O2)C(C)=CC(C)(C)N3 (centres undefined) please.
1.88

Report log10 of IC50 for C=C(C)CC1Oc2cccc(OC)c2-c2ccc3c(c21)C(C)=CC(C)(C)N3 (centres undefined) please.
1.82

Report log10 of IC50 for COc1cccc2c1-c1ccc3c(c1C(C1C=C(C)CCC1)O2)C(C)=CC(C)(C)N3 (centres undefined) please.
1.18

Report log10 of IC50 for C=C(CO)CC1Oc2cccc(OC)c2-c2ccc3c(c21)C(C)=CC(C)(C)N3 (centres undefined) please.
2.49

Report log10 of IC50 for `COc1cccc2c1-c1ccc3c(c1[C@H]([C@H]1C=C(C)CCC1)O2)C(C)=CC(C)(C)N3` please.
1.60

Report log10 of IC50 for CC/C=C\CC1Oc2cccc(OC)c2-c2ccc3c(c21)C(C)=CC(C)(C)N3 (centres undefined) please.
1.95

Report log10 of IC50 for C=CCC1Oc2cccc(OC)c2-c2ccc3c(c21)C(C)=CC(C)(C)N3 (stereo in doubt; (-)4a) [AL-43] please.
1.15

Report log10 of IC50 for C/C=C\CC1Oc2cccc(OC)c2-c2ccc3c(c21)C(C)=CC(C)(C)N3 (centres undefined) please.
1.59

Report log10 of IC50 for COc1cccc2c1-c1ccc3c(c1C(C1C=CCCC1)O2)C(C)=CC(C)(C)N3 (centres undefined) please.
1.11

* * *

# tested_system: Progesterone receptor (Homo sapiens)
# test_method_notes: Transcriptional activation in cells expressing progesterone receptor isoform B compared to progesterone
# Type: functional
measured_endpoint: Efficacy (%)
Write the value in % as a bare number.

Report Efficacy for `COc1c(O)ccc2c1-c1ccc3c(c1[C@H]([C@@H]1C=C(C)CCC1)O2)C(C)=CC(C)(C)N3` please.
260

Report Efficacy for `COc1cccc2c1-c1ccc3c(c1[C@H]([C@H]1C=C(C)CCC1)O2)C(C)=CC(C)(C)N3` please.
13

Report Efficacy for `COc1c(O)ccc2c1-c1ccc3c(c1[C@H]([C@H]1C=C(C)CCC1)O2)C(C)=CC(C)(C)N3` please.
190

Report Efficacy for `COc1cccc2c1-c1ccc3c(c1[C@H]([C@@H]1C=C(C)CCC1)O2)C(C)=CC(C)(C)N3` please.
70

* * *

# tested_system: Glucocorticoid receptor (Homo sapiens, UniProt P04150)
# Sequence (P04150 whole entry): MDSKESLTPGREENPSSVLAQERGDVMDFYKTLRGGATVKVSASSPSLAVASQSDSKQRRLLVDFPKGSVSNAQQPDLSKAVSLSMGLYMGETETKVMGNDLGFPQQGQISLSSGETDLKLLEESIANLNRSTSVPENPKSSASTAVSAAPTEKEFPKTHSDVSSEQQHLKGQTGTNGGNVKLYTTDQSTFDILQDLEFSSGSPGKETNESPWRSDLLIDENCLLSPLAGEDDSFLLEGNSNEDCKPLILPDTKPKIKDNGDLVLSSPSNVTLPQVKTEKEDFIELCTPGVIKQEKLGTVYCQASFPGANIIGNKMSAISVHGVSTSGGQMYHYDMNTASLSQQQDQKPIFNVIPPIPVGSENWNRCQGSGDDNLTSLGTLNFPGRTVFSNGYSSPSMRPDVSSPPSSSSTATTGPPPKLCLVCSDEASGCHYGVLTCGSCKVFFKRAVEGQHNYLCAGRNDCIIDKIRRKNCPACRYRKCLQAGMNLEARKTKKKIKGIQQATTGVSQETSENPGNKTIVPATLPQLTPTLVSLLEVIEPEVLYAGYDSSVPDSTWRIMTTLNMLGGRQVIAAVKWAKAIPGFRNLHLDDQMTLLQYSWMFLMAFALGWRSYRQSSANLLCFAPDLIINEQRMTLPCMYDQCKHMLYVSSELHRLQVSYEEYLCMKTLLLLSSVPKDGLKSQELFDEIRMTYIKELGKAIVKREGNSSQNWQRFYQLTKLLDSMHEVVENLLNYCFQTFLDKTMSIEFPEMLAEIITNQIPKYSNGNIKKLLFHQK
# test_method_notes: Inhibition of transcriptional repression in CV-1 cells expressing glucocorticoid receptor
# Assay type: functional, cell-based
measured_endpoint: IC50 (nM)
Write the value in nM as a bare number.

Report IC50 for `COc1cccc2c1-c1ccc3c(c1[C@H]([C@@H]1C=C(C)CCC1)O2)C(C)=CC(C)(C)N3` please.
5.8

Report IC50 for C=CCC1Oc2cccc(OC)c2-c2ccc3c(c21)C(C)=CC(C)(C)N3 (stereo in doubt; 4a) [AL-43] please.
13

Report IC50 for COc1cccc2c1-c1ccc3c(c1C(CC=C(F)F)O2)C(C)=CC(C)(C)N3 (centres undefined) please.
20

Report IC50 for COc1cccc2c1-c1ccc3c(c1C(C1C=CCCC1)O2)C(C)=CC(C)(C)N3 (centres undefined) please.
21

Report IC50 for C=C(COC(C)=O)CC1Oc2cccc(OC)c2-c2ccc3c(c21)C(C)=CC(C)(C)N3 (centres undefined) please.
141

Report IC50 for C=C(CO)CC1Oc2cccc(OC)c2-c2ccc3c(c21)C(C)=CC(C)(C)N3 (centres undefined) please.
141

Report IC50 for C/C=C\CC1Oc2cccc(OC)c2-c2ccc3c(c21)C(C)=CC(C)(C)N3 (centres undefined) please.
23

Report IC50 for C=CC(C)C1Oc2cccc(OC)c2-c2ccc3c(c21)C(C)=CC(C)(C)N3 (centres undefined) please.
40

Report IC50 for C/C=C/CC1Oc2cccc(OC)c2-c2ccc3c(c21)C(C)=CC(C)(C)N3 (centres undefined) please.
38

* * *

Task for the reader: assign each of the following compounds its reported Activity.
# tested_system: Progesterone receptor (Homo sapiens)
# test_method_notes: In vitro binding affinity against progesterone receptor
Write the value in nM as a bare number.

Provide the documented Activity with Progesterone receptor (Homo sapiens) as the system for `COc1c(O)ccc2c1-c1ccc3c(c1[C@H]([C@@H]1C=C(C)CCC1)O2)C(C)=CC(C)(C)N3`
11.4

Provide the documented Activity with Progesterone receptor (Homo sapiens) as the system for `COc1cccc2c1-c1ccc3c(c1[C@H]([C@H]1C=C(C)CCC1)O2)C(C)=CC(C)(C)N3`
710

Provide the documented Activity with Progesterone receptor (Homo sapiens) as the system for C/C=C\CC1Oc2cccc(OC)c2-c2ccc3c(c21)C(C)=CC(C)(C)N3 (stereo unspecified)
1200

Provide the documented Activity with Progesterone receptor (Homo sapiens) as the system for C=CCC1Oc2cccc(OC)c2-c2ccc3c(c21)C(C)=CC(C)(C)N3 (stereo in doubt; 4a)
1800

Provide the documented Activity with Progesterone receptor (Homo sapiens) as the system for COc1cccc2c1-c1ccc3c(c1C(C1C=CCCC1)O2)C(C)=CC(C)(C)N3 (stereo unspecified)
2400

Provide the documented Activity with Progesterone receptor (Homo sapiens) as the system for C/C=C/CC1Oc2cccc(OC)c2-c2ccc3c(c21)C(C)=CC(C)(C)N3 (stereo unspecified)
2100

Provide the documented Activity with Progesterone receptor (Homo sapiens) as the system for COc1cccc2c1-c1ccc3c(c1C(CC=C(C)C)O2)C(C)=CC(C)(C)N3 (stereo unspecified)
1600

Provide the documented Activity with Progesterone receptor (Homo sapiens) as the system for COc1cccc2c1-c1ccc3c(c1C(CC=C(F)F)O2)C(C)=CC(C)(C)N3 (stereo unspecified)
2300

Provide the documented Activity with Progesterone receptor (Homo sapiens) as the system for `COc1c(O)ccc2c1-c1ccc3c(c1[C@H]([C@H]1C=C(C)CCC1)O2)C(C)=CC(C)(C)N3`
52

Provide the documented Activity with Progesterone receptor (Homo sapiens) as the system for C=CCC1Oc2cccc(OC)c2-c2ccc3c(c21)C(C)=CC(C)(C)N3 (stereo in doubt; (-)4a)
1300

Provide the documented Activity with Progesterone receptor (Homo sapiens) as the system for COc1cccc2c1-c1ccc3c(c1C(C1C=C(C)CCC1)O2)C(C)=CC(C)(C)N3 (stereo unspecified)
980

Provide the documented Activity with Progesterone receptor (Homo sapiens) as the system for `COc1cccc2c1-c1ccc3c(c1[C@H]([C@@H]1C=C(C)CCC1)O2)C(C)=CC(C)(C)N3`
430

Provide the documented Activity with Progesterone receptor (Homo sapiens) as the system for COc1cccc2c1-c1ccc3c(c1C(C1C=CCC1)O2)C(C)=CC(C)(C)N3 (stereo unspecified)
2200

* * *

Task for the reader: assign each of the following compounds its reported log10 IC50.
# tested_system: Glucocorticoid receptor (Homo sapiens)
# test_method_notes: Inhibition of transcriptional repression in CV-1 cells expressing glucocorticoid receptor
# Type: functional, cell-based
Please interpret these as log10 of IC50 where IC50 is in nM.

Report log10 IC50 for `COc1cccc2c1-c1ccc3c(c1[C@H]([C@H]1C=C(C)CCC1)O2)C(C)=CC(C)(C)N3` please.
1.28

Report log10 IC50 for COc1cccc2c1-c1ccc3c(c1C(C1C=C(C)CCC1)O2)C(C)=CC(C)(C)N3 (stereo not given) please.
0.85

Report log10 IC50 for C=C1CCCCC1C1Oc2cccc(OC)c2-c2ccc3c(c21)C(C)=CC(C)(C)N3 (stereo not given) please.
2.51

Report log10 IC50 for COc1cccc2c1-c1ccc3c(c1C(CC=C(C)C)O2)C(C)=CC(C)(C)N3 (stereo not given) please.
1.36

Report log10 IC50 for `COc1cccc2c1-c1ccc3c(c1[C@@H]([C@H]1C=C(C)CCC1)O2)C(C)=CC(C)(C)N3` please.
2.64

Report log10 IC50 for COc1cccc2c1-c1ccc3c(c1C(C/C=C/CO)O2)C(C)=CC(C)(C)N3 (stereo not given) please.
2.18

Report log10 IC50 for C=C(Br)CC1Oc2cccc(OC)c2-c2ccc3c(c21)C(C)=CC(C)(C)N3 (stereo not given) please.
2.04

Report log10 IC50 for C=C(C)CC1Oc2cccc(OC)c2-c2ccc3c(c21)C(C)=CC(C)(C)N3 (stereo not given) please.
1.62

Report log10 IC50 for COC(=O)/C=C/CC1Oc2cccc(OC)c2-c2ccc3c(c21)C(C)=CC(C)(C)N3 (stereo not given) please.
1.94

Report log10 IC50 for COc1cccc2c1-c1ccc3c(c1C(CC=C1CCCC1)O2)C(C)=CC(C)(C)N3 (stereo not given) please.
2.34

Report log10 IC50 for CC/C=C\CC1Oc2cccc(OC)c2-c2ccc3c(c21)C(C)=CC(C)(C)N3 (stereo not given) please.
1.94

Report log10 IC50 for C=CCC1Oc2cccc(OC)c2-c2ccc3c(c21)C(C)=CC(C)(C)N3 (stereo in doubt; (-)4a) [AL-43] please.
0.84
